System: Aorta
Experiment: Vasodilatory activity in Wistar rat endothelium-denuded thoracic aortic ring assessed as inhibition of phenylephrine-induced contraction drug treated 30 mins after ALDH2 inhibitor benomyl treatment
Assay type: functional, tissue-based
Details: 0.5 h
measured.property: EC50
Reply with a number, then the unit it belongs to.

Reference set, count: 5
test.smiles: O=[N+]([O-])OC[C@@H](Cc1ccccc1)O[N+](=O)[O-]
EC50: 630 nM

test.smiles: O=[N+]([O-])OCCCCc1ccccc1
EC50: 510 nM

test.smiles: O=[N+]([O-])OC[C@H](Cc1ccccc1)O[N+](=O)[O-]
EC50: 600 nM

test.smiles: O=[N+]([O-])OC[C@H](CCc1ccccc1)O[N+](=O)[O-]
EC50: 160 nM

test.smiles: O=[N+]([O-])OC[C@@H](CCc1ccccc1)O[N+](=O)[O-]
EC50: 120 nM

Lookup: EC50 lookup needed for O=[N+]([O-])OCCCc1ccccc1 , thanks.
Found: 1500 nM

Lookup: Recorded EC50 of O=[N+]([O-])OCC(CO[N+](=O)[O-])O[N+](=O)[O-] , please.
Found: 420 nM
